The origin of these recorded values is patent US20100298225A1.

Target: Recombinant Cx43CT (carboxyl terminal domain of connexin43, sequence 255-382 of rCx43 preceded by GPLG) (rat, UniProt P08050)
Sequence (P08050 other isoform, or with tags, fused parts or gaps limits assumed): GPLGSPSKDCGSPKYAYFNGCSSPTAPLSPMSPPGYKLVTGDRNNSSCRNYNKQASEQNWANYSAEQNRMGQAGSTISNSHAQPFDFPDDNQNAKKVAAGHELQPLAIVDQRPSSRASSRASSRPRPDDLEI
Experiment: SPR, Cx43CT immobilised, peptide at 250 uM
Below is a list of entries, each paired with its recorded SPR respons at 250 uM value.
Record the value in arbitrary units, omitting the unit from your answer.

For orientation, consider the following solved cases.
Ac-RRNYAVPFRRNY-NH2 [Compound 2511] ... 214
Ac-YNRRGGGSAVPFYSHSYNRR-NH2 [Compound 2496] ... 358
Ac-RRNYGGGRRNY-NH2 [Compound 2509] ... 148
Ac-RRNYSAVPFYSHSRRNY-NH2 [Compound 2506] ... 327
Ac-RRNYGGSAVPFYSHRRNY-NH2 [Compound 2510] ... 332

Summary for this binder, Ac-RRNYGGGSAVPFYRRNY-NH2 [Compound 2508] : SPR respons at 250 uM is 285

So, Ac-RRNYVPRRNY-NH2 [Compound 2512] ? Its SPR respons at 250 uM was 117

Query Ac-RRNYSHSRRNY-NH2 [Compound 2507] yields SPR respons at 250 uM of 254

# binder Ac-RRNYRRNY-NH2 [Compound 2497] ; its SPR respons at 250 uM = 202
